test system: MS2 coat protein; assay: apparent KD of MS2 coat protein; higher = weaker reporter binding; conditions: Eterna round: R107; input ligand: tryptophan 2.4 mM
# maps each entry to its apparent KD of MS2 coat protein
Just the number in nM, nothing appended.

Q: Data request, read-out apparent KD of MS2 coat protein, for GAUGAACUAUAUGAUACCAGACAACAUGAGGAUCACCCAUGUGAUAGUCGUCCUCUGCCUGUCCCUUGGCAGCGUAUAGUUUAUC [XTheo B #19]
Result: 21.2

Q: Data request, read-out apparent KD of MS2 coat protein, for UAUAUAGAAGGAAGUCAUAUAGAUGCAGAAGGAGCGUAGGAAACUACAGGUAGGUCGCUGAGGUACAUGAGGAUCACCCAUGUAG [SSArg A #15 Slice of Pi]
Result: 29.4

Q: Data request, read-out apparent KD of MS2 coat protein, for UAAAACAUGAGGAUCACCCAUGUAAUUGAUACCAGAGUGAUGAUCCUCCCUUGGCAGCAAAACGCUGAUUGGAAACAAUCAGCGA [Mat - Same State Theophlline A - Mod of Eli - D25]
Result: 46.8

Q: Data request, read-out apparent KD of MS2 coat protein, for UGACAUUGCUCAGAUACCAGACGUGAGGAUCACCCACGUGCCAACAAGUACAAAAUAAAUGUCCCUUGGCAGCUGAGCAAUGUCU [TheoBX 26 #MS2Left #AlternativeMS2 #Theo22]
Result: 10.9

Q: Data request, read-out apparent KD of MS2 coat protein, for UAAAGUAGGUCCAAUAAAACUACAUGUGAAGGAGCGCGCGAAAGCGCAGGUAGGUCGCACAUGAGGAUCACCCAUGUCCUACAAU [MAT - Exclusion Arginine A - Mod of Eli - D17]
Result: 43

Q: Data request, read-out apparent KD of MS2 coat protein, for CAAUUUAUAUGAAGGAGCGUCGAAAAUGGGUAAACAUGAGGAUCACCCAUGUAAAGGGAACGACAGGUAGGUCGCAUAUGGAUUG [AstromonsSSArgB#10]
Result: 182

Q: Data request, read-out apparent KD of MS2 coat protein, for AAAUAAAUACAUGAGGAUCACCCAUGUGAAGGAGCGCCCGUUAGGGCAGGUAGGUCGCACAUGAACUCCAAGCGAAAGAAAUAAU [ArgEX 16 #OpenEnded]
Result: 16.4

###

tested on: MS2 coat protein; test: apparent KD of MS2 coat protein; higher = weaker reporter binding; details: Eterna round: R107; input ligand: arginine 13.2 mM
reportedEndpoint: apparent KD of MS2 coat protein (nM)
Just the number in nM, nothing appended.

Consider the worked cases shown below.
UCAGUGCAAGGAAGGAGCGGGUACAUGAGGAUCACCCAUGUGCAAGUGGUGAGUGUUCGUGCCCAGGUAGGUCGCCUAGCCUGGU [XArg-B19]    36.4
UUAAAUGUGACGGAUACCAGCGUGUUGUAGAACAUGAGGAUCACCCAUGUAGUGAUCAUGCGCCCUUGGCAGCUGGUAUGUUUGA [7.aA]    189
AGUACAUGAGGAUCACCCAUGUAUCGGUACCGAGGACCGGUACGGCCGCCACUCGCAGGACAUGAGGAUCACCCAUGUGCCGCCG [SSTA DOUBLE!!! :-D #9]    13.9
UACCCAUGAGUUGGAAAAGCUCAUGGGUAUCGAGGACCGGUACGGCCGCCACUCGGCUGUACAUGAGGAUCACCCAUGUCAGGGU [#1 Same State - Tryptophan A Attempt #24 (HarryS)]    29.9

Q: Data request, read-out apparent KD of MS2 coat protein, for UGAGUUCGCUGAUGGGCUAAGUCAGGUGAUACCAGCCACUCCCGCGGCCCUUGGCAGCACAUGAGGAUCACCCAUGUAGAACUUG [Vexetela]
Result: 16

Q: Data request, read-out apparent KD of MS2 coat protein, for GGCACAUGUGGAAGGAGCGUCGUACGAGCUACAUGAGGAUCACCCAUGUCGGUUAGUGUCCGACAGGUAGGUCGCCACAUUUAAC [Isiser]
Result: 114

###

tested on: MS2 coat protein; assay: apparent KD of MS2 coat protein; higher = weaker reporter binding; settings: Eterna round: R107; input ligand: arginine 13.2 mM
reportedEndpoint: apparent KD of MS2 coat protein (nM)
Just the number in nM, nothing appended.

CGCAACCCACAUGAGGAUCACCCAUGUGAAGGAGCGGCGAAUAAGCCAGGUAGGUCGCGCAUGAAUAAAUCAUGUAGGAAGCGAA [XArg-A 7 V1&2]    18
AGUCUUGAACGAAGGAGCGACGUACAUGAGGAUCACCCAUGUGUGGAGCGAAAGCUCCAACGUCAGGUAGGUCGCGUUCGAGACA [Omei Arginine B SS A v2]    14.9
AUAACAUGAGGAUCACCCAUGUAAGGUGAUACCAGACGAAGUAAAGUCCCUUGGCAGCACAAGCAUAGUUGCGAAUAUUGAUAGA [JR_SSTheophyA_Sub005]    264
UCGUUUUAGUCGGCCGCCACUGUAUGCAUGUUUAACAUGAGGAUCACCCAUGUCCCGUUCUAUUUCAGGACCGGGACGUAAUCGA [JR_SSTryptoB_Sub008]    106
UAUCCACAUGAGGAUCACCCAUGUAGGGAAGGAGCGGUGAUUUCACCAGGUAGGUCGCCUUACUGAGGAGAGCCGGUGGAAUCGU [Exclusion - Arginine A (Freestyle 31)]    22.3

Q: Data request, read-out apparent KD of MS2 coat protein, for UGGUGUAGGGUAAAUAGGCUGAGUACAGAAGGAGCGCGAAUAAACGCAGGUAGGUCGCUGGACACAUGAGGAUCACCCAUGUUGA [Same State Arginine A GF 29]
Result: 10.8

Q: Data request, read-out apparent KD of MS2 coat protein, for UUUCUUUUCUUUCUUUCCUUUCAAACCGAAGGAGCGGGAACAAACCCAGGUAGGUCGCGGUGUGACAUGAGGAUCACCCAUGUGU [Exclusion - Arginine]
Result: 65.5

Q: Data request, read-out apparent KD of MS2 coat protein, for UAACAUGAGGAUCACCCAUGUAUAGUCGAUACCAGCUCAAGGGAGAGCCCUUGGCAGCGACACUGGUAUCCAUGGGUGUGGAUAC [(Ms2)-(Theo)-(T)'-(M)'-(T)''_Design3]
Result: 76.9

Q: Data request, read-out apparent KD of MS2 coat protein, for GAUCGAAAUAACGUCUAGGAAAACUAGACGCGAGGACCGGUACGGCCGCCACUCGGGUGGCACAUGAGGAUCACCCAUGUAGAUC [#SwitchBubble 5 #GuTurnoff #MS2 3']
Result: 69.4

Q: Data request, read-out apparent KD of MS2 coat protein, for AGGAACAUGAGGAUCACCCAUGUAAGCGAUACCAGUGAUAUGUUGCGCCCUUGGCAGCGCAAGUGUGUGUGAAAGAUGUAAGAUU [Eclusion - Theophylline A / A]
Result: 14.6

###

test system: MS2 coat protein; assay: apparent KD of MS2 coat protein; designed switch direction (-1 OFF switch, 1 ON switch): -1; higher = weaker reporter binding; details: input ligand: none
# maps each entry to its apparent KD of MS2 coat protein
Just the number in nM, nothing appended.

CACUGGACAGGAUAUGUUCUUGAGCACUUGAGGAUCACCCAAGUCAUCAAGAACUCAGGCACAGAAGGGUUUAUGG [salish99_ex5_r4_013] (Eterna round: R97, puzzle: Exclusion 5)    16.9
GUUGUUUAUGUAGGAUAUGCCUGGCGUGCCUUUGCAGAAGGACAUGAGGAUCACCCAUGUAACAUGAGGCUCACCCAUGUCGCU [salish99_ExNG1_r04_108] (Eterna round: R96, puzzle: Exclusion NG 1)    296
AGUACUAUCACGAAAGUGAUAGUACAAAAAGCAAGUGAAACAUGAGGAUCACCCAUGUCCUCAUUUGCUCGUCUUAU [JL turnoff v2 99] (Eterna round: R96, puzzle: Sensor v2, turn-off variant 2)    14.4
AAGGAUAGAGGAUAUACAUAGAUACAGAUUCAUGUAGAACUACAUGAGGAUCACCCAUGUAGAAGGCUAUCCUA [Mat - Same state - Mayanna Mod - D121] (Eterna round: R96, puzzle: Exclusion 2)    33.3
GUCGUGCAGCUUUGCUGUACGAGUACAUGAGGAUCACCCAUGUAGGAUAUGGUACGCUUUGCGUGCCAGAAGGACGUGCGUUAG [salish99_ExNG3_r04_001] (Eterna round: R96, puzzle: Exclusion NG 3)    39.3

Let's switch to this sequence now.
Q: Data request, read-out apparent KD of MS2 coat protein, for CCGGCUUACUAGGAUAUCAGAGUCGAAAGACUCUGAGAAGGAGUAACAUGAGGAUCACCCAUGUGUCCUACCGG [Mod of Eli 9 - Jieux - Exclusion 6] (Eterna round: R97, puzzle: Exclusion 6)
Result: 29.5
